Provenance of the data: ChEMBL document CHEMBL5131458

Measured Ki, listed per entry.
# measured-target: Carbonic anhydrase 9 (Homo sapiens, UniProt Q16790)
# assay-summary: Inhibition of recombinant human carbonic anhydrase 9 incubated for 15 mins by phenol red based stopped-flow CO2 hydration assay
Field: numeric (nM). Do not append units.

# molecule, observed-result
measured = [
    ("NS(=O)(=O)c1ccc(Nc2nc(C(=O)OCCOCCO)cs2)cc1", 26.8),
    ("CCCCOC(=O)c1csc(Nc2ccc(S(N)(=O)=O)cc2)n1", 71.1),
    ("NS(=O)(=O)c1ccc(Nc2nc(C(=O)OCCOc3ccccc3)cs2)cc1", 150),
]

Problem: Item CC(O)COC(=O)c1csc(Nc2ccc(S(N)(=O)=O)cc2)n1 (centres undefined) with Carbonic anhydrase 9 (Homo sapiens, UniProt Q16790) - Ki?
Result: 37.9

Problem: # value lookup — system Carbonic anhydrase 9 (Homo sapiens, UniProt Q16790), readout Ki, item CCCCCOC(=O)c1csc(Nc2ccc(S(N)(=O)=O)cc2)n1
Result: 72

Problem: Give recorded Ki with Carbonic anhydrase 9 (Homo sapiens, UniProt Q16790) for the following molecule: CC(C)OC(=O)c1csc(Nc2ccc(S(N)(=O)=O)cc2)n1
Result: 90.3

Problem: Give recorded Ki with Carbonic anhydrase 9 (Homo sapiens, UniProt Q16790) for the following molecule: COCCOC(=O)c1csc(Nc2ccc(S(N)(=O)=O)cc2)n1
Result: 35.1

Problem: // fetch Carbonic anhydrase 9 (Homo sapiens, UniProt Q16790) Ki for CCCOC(=O)c1csc(Nc2ccc(S(N)(=O)=O)cc2)n1
Result: 49.9

Problem: Give Ki (Carbonic anhydrase 9 (Homo sapiens, UniProt Q16790)) of the following molecule: CCCCCCCOC(=O)c1csc(Nc2ccc(S(N)(=O)=O)cc2)n1
Result: 74.3
